Values were extracted from the supplement of paper PMC9334596.

- Tested on: mPer2Luc MEF
- measurementNotes: PER2::LUC luminescence relative to vehicle control (fold of vehicle); higher = higher PER2::LUC reporter signal
- conditionSummary: time after treatment 30 h; 10 µM
Whole data set: some 5,300 compounds, median “PER2::LUC luminescence relative to vehicle control” near 0.96, cut for the highest 2% near 1.3. This excerpt belongs to a sample that is enriched for the highest values.
measurementType: PER2::LUC luminescence

[[record]]
compound = "N=C(N)NC(=O)c1nc(Cl)c(N)nc1N"
target = "mPer2Luc MEF"
result = 1.12

[[record]]
compound = "CC(C)C1=CC2=CC[C@@H]3[C@](C)(CCC[C@@]3(C)C(=O)O)[C@H]2CC1"
target = "mPer2Luc MEF"
result = 1.15

[[record]]
compound = "COc1ccc2cc1Oc1ccc(cc1)C[C@@H]1c3cc(c(OC)cc3CCN1C)Oc1c(OC)c(OC)cc3c1[C@H](C2)N(C)CC3"
target = "mPer2Luc MEF"
result = 0.713

[[record]]
compound = "COc1ccc(C2=N[C@@H](c3ccc(Cl)cc3)[C@@H](c3ccc(Cl)cc3)N2C(=O)N2CCNC(=O)C2)c(OC(C)C)c1 (racemic)"
target = "mPer2Luc MEF"
result = 0.948

[[record]]
compound = "O=C(O)[C@@]1(CCCCCCOc2ccc(Cl)cc2)CO1"
target = "mPer2Luc MEF"
result = 1.01

[[record]]
compound = "C=C1C[C@@]23CC[C@H]4[C@@](C)(CCC[C@@]4(C)C(=O)O)[C@@H]2CC[C@]1(O)C3"
target = "mPer2Luc MEF"
result = 1.12

[[record]]
compound = "CCCCCCCCCCCCCCCCCC(=O)OC(CC(=O)O)C[N+](C)(C)C (racemic)"
target = "mPer2Luc MEF"
result = 0.786

[[record]]
compound = "NC1CCN(O)C1=O (single isomer, unassigned; (+))"
target = "mPer2Luc MEF"
result = 0.883

[[record]]
compound = "N/C(=N\\C(=O)c1nc(Cl)c(N)nc1N)NCc1ccccc1"
target = "mPer2Luc MEF"
result = 0.986


---

Quick reference for PER2::LUC luminescence among some compounds
- System: mPer2Luc MEF
- measurementNotes: PER2::LUC luminescence relative to vehicle control (fold of vehicle); higher = higher PER2::LUC reporter signal
- conditionSummary: time after treatment 24 h; 10 µM
The full ranking holds about 5,300 compounds; the median of “PER2::LUC luminescence relative to vehicle control” is about 0.96, and the highest 2% start at about 1.3. This is one part of a sample in which the highest values are shown more often than they occur.
measurementType: PER2::LUC luminescence

[[record]]
compound = "N[C@H](C(=O)O)c1ccc(O)c(C(=O)O)c1"
target = "mPer2Luc MEF"
measurementtype = "PER2::LUC luminescence"
numericvalue = 1.02

[[record]]
compound = "COc1ccc(-c2c(O)c3c(OC)c4c(cc3oc2=O)OC(C)(C)C=C4)cc1"
target = "mPer2Luc MEF"
measurementtype = "PER2::LUC luminescence"
numericvalue = 1.5

[[record]]
compound = "C[C@@H]1O[C@@H](OC[C@H]2O[C@@H](Oc3cc(O)c4c(c3)O[C@H](c3ccc(O)cc3)CC4=O)[C@H](O)[C@@H](O)[C@@H]2O)[C@H](O)[C@H](O)[C@H]1O"
target = "mPer2Luc MEF"
measurementtype = "PER2::LUC luminescence"
numericvalue = 0.957

[[record]]
compound = "CCCCCCCCCCCCCC[C@@H](O)[C@@H](O)[C@@H](CO)NC(C)=O"
target = "mPer2Luc MEF"
measurementtype = "PER2::LUC luminescence"
numericvalue = 1.07

[[record]]
compound = "C/C1=C/CCC(C)(O)/C=C\\C(C(C)C)C(OC(=O)c2ccc(O)cc2)C1 (stereo unspecified)"
target = "mPer2Luc MEF"
measurementtype = "PER2::LUC luminescence"
numericvalue = 1.06

[[record]]
compound = "CC(Oc1ccc(Oc2cnc3ccc(Cl)cc3n2)cc1)C(=O)O (stereo unspecified)"
target = "mPer2Luc MEF"
measurementtype = "PER2::LUC luminescence"
numericvalue = 1.14

[[record]]
compound = "O=c1cc(-c2ccccc2)oc2c(O)c(O)ccc12"
target = "mPer2Luc MEF"
measurementtype = "PER2::LUC luminescence"
numericvalue = 0.582

[[record]]
compound = "O=c1oc2cc(O)ccc2c2oc3cc(O)ccc3c12"
target = "mPer2Luc MEF"
measurementtype = "PER2::LUC luminescence"
numericvalue = 1.06

[[record]]
compound = "N=C(N)NC(=O)c1nc(Cl)c(N)nc1N"
target = "mPer2Luc MEF"
measurementtype = "PER2::LUC luminescence"
numericvalue = 1.32

[[record]]
compound = "CCOC(=O)COc1ccc2c(=O)cc(-c3ccccc3)oc2c1"
target = "mPer2Luc MEF"
measurementtype = "PER2::LUC luminescence"
numericvalue = 1.06

[[record]]
compound = "O=c1cc(-c2ccccc2)oc2ccc(O)cc12"
target = "mPer2Luc MEF"
measurementtype = "PER2::LUC luminescence"
numericvalue = 1.47

[[record]]
compound = "CC(C)c1ccc2oc3nc(N)c(C(=O)O)cc3c(=O)c2c1"
target = "mPer2Luc MEF"
measurementtype = "PER2::LUC luminescence"
numericvalue = 1.07

[[record]]
compound = "COc1cc(O)c2c(=O)c(O)c(-c3ccccc3)oc2c1"
target = "mPer2Luc MEF"
measurementtype = "PER2::LUC luminescence"
numericvalue = 0.99

[[record]]
compound = "CCN1CCN(Cc2ccc(NC(=O)Nc3ccc(Oc4cc(NC)ncn4)cc3)cc2C(F)(F)F)CC1"
target = "mPer2Luc MEF"
measurementtype = "PER2::LUC luminescence"
numericvalue = 0.107

[[record]]
compound = "CCCCCCOc1ccccc1C(N)=O"
target = "mPer2Luc MEF"
measurementtype = "PER2::LUC luminescence"
numericvalue = 1.33

[[record]]
compound = "COc1ccc(C(OCCN2CCC[C@H](C(=O)O)C2)(c2ccc(OC)cc2)c2ccc(OC)cc2)cc1"
target = "mPer2Luc MEF"
measurementtype = "PER2::LUC luminescence"
numericvalue = 0.855

[[record]]
compound = "N=C(NC(=O)c1nc(Cl)c(N)nc1N)Nc1ccccc1"
target = "mPer2Luc MEF"
measurementtype = "PER2::LUC luminescence"
numericvalue = 1.32

[[record]]
compound = "C[C@@H]1O[C@@H](OC[C@H]2O[C@@H](Oc3cc(O)c4c(=O)cc(-c5ccc(O)cc5)oc4c3)[C@H](O)[C@@H](O)[C@@H]2O)[C@H](O)[C@H](O)[C@H]1O"
target = "mPer2Luc MEF"
measurementtype = "PER2::LUC luminescence"
numericvalue = 0.948

[[record]]
compound = "COc1ccc(CNc2nc(NCc3ccc(OC)cc3)c3ncn(C(C)C)c3n2)cc1"
target = "mPer2Luc MEF"
measurementtype = "PER2::LUC luminescence"
numericvalue = 0.991

[[record]]
compound = "Cc1nc2ccccc2n1Cc1ccc(Cl)cc1"
target = "mPer2Luc MEF"
measurementtype = "PER2::LUC luminescence"
numericvalue = 0.361

[[record]]
compound = "COc1cc(N(C)CCN(C)C)c(N)cc1Nc1nccc(-c2cn(C)c3ccccc23)n1"
target = "mPer2Luc MEF"
measurementtype = "PER2::LUC luminescence"
numericvalue = 0.57

[[record]]
compound = "CCCCOC(=O)OCCCC"
target = "mPer2Luc MEF"
measurementtype = "PER2::LUC luminescence"
numericvalue = 1

[[record]]
compound = "C[C@@H](NC(=O)c1cc(C(=O)N[C@@H](Cc2ccccc2)[C@H](O)CNC2CC2)cc(N(C)S(C)(=O)=O)c1)c1ccccc1"
target = "mPer2Luc MEF"
measurementtype = "PER2::LUC luminescence"
numericvalue = 1.01

[[record]]
compound = "CC[N+]1(C)C2CCC1CC(OC(=O)C1CCC(C(=O)OC3CC4CCC(C3)[N+]4(C)CC)(c3ccccc3)c3ccccc31)C2 (stereo unspecified)"
target = "mPer2Luc MEF"
measurementtype = "PER2::LUC luminescence"
numericvalue = 0.898

[[record]]
compound = "CC(C(=O)O)c1ccc(N2Cc3ccccc3C2=O)cc1 (stereo unspecified)"
target = "mPer2Luc MEF"
measurementtype = "PER2::LUC luminescence"
numericvalue = 1.02

[[record]]
compound = "OC[C@H]1O[C@@H](O[C@H]2[C@H](O)[C@@H](O)[C@@H](O)O[C@@H]2CO)[C@H](O)[C@@H](O)[C@@H]1O"
target = "mPer2Luc MEF"
measurementtype = "PER2::LUC luminescence"
numericvalue = 0.982

[[record]]
compound = "CCCCC[C@H](O)/C=C/[C@@H]1[C@@H](C/C=C\\CCCC(=O)O)[C@H](O)C[C@H]1O"
target = "mPer2Luc MEF"
measurementtype = "PER2::LUC luminescence"
numericvalue = 1.1

[[record]]
compound = "CC1(C)C2CCC1(C(=O)O)C(=O)C2 (stereo unspecified)"
target = "mPer2Luc MEF"
measurementtype = "PER2::LUC luminescence"
numericvalue = 0.998

[[record]]
compound = "CCCNC[C@]1(O)[C@H](C)O[C@@H](O[C@H]2[C@H](C)[C@@H](O[C@@H]3O[C@H](C)C[C@H](N(C)C)[C@H]3O)[C@](C)(O)C[C@@H](C)CN[C@H](C)[C@@H](O)[C@](C)(O)[C@@H](CC)OC(=O)[C@@H]2C)C[C@@]1(C)OC"
target = "mPer2Luc MEF"
measurementtype = "PER2::LUC luminescence"
numericvalue = 1.05

[[record]]
compound = "CC(C(=O)O)c1ccc2c(c1)CC(=O)c1ccccc1S2 (stereo unspecified)"
target = "mPer2Luc MEF"
measurementtype = "PER2::LUC luminescence"
numericvalue = 1.05

[[record]]
compound = "O=c1cc(-c2ccc(O)cc2)oc2cc(O)c([C@@H]3O[C@H](CO)[C@@H](O)[C@H](O)[C@H]3O)c(O)c12"
target = "mPer2Luc MEF"
measurementtype = "PER2::LUC luminescence"
numericvalue = 0.972

[[record]]
compound = "O=c1c(O)c(-c2ccccc2)oc2ccccc12"
target = "mPer2Luc MEF"
measurementtype = "PER2::LUC luminescence"
numericvalue = 1.08

[[record]]
compound = "C[C@H]1CCN(C(=O)CC#N)C[C@H]1N(C)c1ncnc2[nH]ccc12"
target = "mPer2Luc MEF"
measurementtype = "PER2::LUC luminescence"
numericvalue = 1

[[record]]
compound = "COc1cc(OC)c2c(OC)c(-c3ccc4c(c3)OCO4)c(=O)oc2c1"
target = "mPer2Luc MEF"
measurementtype = "PER2::LUC luminescence"
numericvalue = 1.02

[[record]]
compound = "CNC(=S)NCCSCc1[nH]cnc1C"
target = "mPer2Luc MEF"
measurementtype = "PER2::LUC luminescence"
numericvalue = 1.06

[[record]]
compound = "O=C(NCc1nc2ccccc2c(=O)n1-c1ccc(F)cc1)Nc1ccc(Cl)c(C(F)(F)F)c1"
target = "mPer2Luc MEF"
measurementtype = "PER2::LUC luminescence"
numericvalue = 1

[[record]]
compound = "O=c1cc(-c2ccccc2O)oc2cc(O)ccc12"
target = "mPer2Luc MEF"
measurementtype = "PER2::LUC luminescence"
numericvalue = 1.27

[[record]]
compound = "CCCCOc1ccc(OCCCN2CCOCC2)cc1"
target = "mPer2Luc MEF"
measurementtype = "PER2::LUC luminescence"
numericvalue = 1.12

[[record]]
compound = "Cc1cc2c(cc1Cl)N(C(=O)Nc1ccc(Oc3cccnc3C)nc1)CC2"
target = "mPer2Luc MEF"
measurementtype = "PER2::LUC luminescence"
numericvalue = 0.924

[[record]]
compound = "O=c1cc(-c2ccc(O)cc2)oc2ccc(O)cc12"
target = "mPer2Luc MEF"
measurementtype = "PER2::LUC luminescence"
numericvalue = 1.72

[[record]]
compound = "CCOCCOc1ccccc1C(N)=O"
target = "mPer2Luc MEF"
measurementtype = "PER2::LUC luminescence"
numericvalue = 0.861

